Values from the Immune Epitope Database (IEDB)

TARGET SYSTEM: HLA-A*26:01
PROCEDURE DETAILS: IEDB peptide-MHC binding, purified MHC/direct/fluorescence; filed as Kd, often an IC50 or EC50 that approximates it; bounds were set here for any values at or beyond the usual limits of such assays
EXPERIMENTAL SETUP: source organism: Brucella suis
MEASUREMENT NAME: Kd

Exam item: Please indicate recorded Kd of `DVIGNDRQE` measured with HLA-A*26:01.
Marked response: ≥ 20 µM

---

TARGET SYSTEM: HLA-A*33:01
PROCEDURE DETAILS: IEDB peptide-MHC binding, purified MHC/competitive/radioactivity; filed as Kd, often an IC50 or EC50 that approximates it; bounds were set here for any values at or beyond the usual limits of such assays
EXPERIMENTAL SETUP: source organism: Vaccinia virus Copenhagen
MEASUREMENT NAME: Kd (µM)
Give the quantity in µM, number only.

[
  {
    "SEQUENCE ENTRY": "LTILDDNLYK",
    "Kd, µM": 17.7
  },
  {
    "SEQUENCE ENTRY": "SSLDQTHIK",
    "Kd, µM": 19.8
  }
]

Proceed to the following item.
Exam item: Recall the reported Kd of `IFAFIDFSK` on HLA-A*33:01 and write it down.
Marked response: 0.0426
